- measuredOn: KDR (human, UniProt P35968 20-1356)
- Sequence (P35968 20-1356): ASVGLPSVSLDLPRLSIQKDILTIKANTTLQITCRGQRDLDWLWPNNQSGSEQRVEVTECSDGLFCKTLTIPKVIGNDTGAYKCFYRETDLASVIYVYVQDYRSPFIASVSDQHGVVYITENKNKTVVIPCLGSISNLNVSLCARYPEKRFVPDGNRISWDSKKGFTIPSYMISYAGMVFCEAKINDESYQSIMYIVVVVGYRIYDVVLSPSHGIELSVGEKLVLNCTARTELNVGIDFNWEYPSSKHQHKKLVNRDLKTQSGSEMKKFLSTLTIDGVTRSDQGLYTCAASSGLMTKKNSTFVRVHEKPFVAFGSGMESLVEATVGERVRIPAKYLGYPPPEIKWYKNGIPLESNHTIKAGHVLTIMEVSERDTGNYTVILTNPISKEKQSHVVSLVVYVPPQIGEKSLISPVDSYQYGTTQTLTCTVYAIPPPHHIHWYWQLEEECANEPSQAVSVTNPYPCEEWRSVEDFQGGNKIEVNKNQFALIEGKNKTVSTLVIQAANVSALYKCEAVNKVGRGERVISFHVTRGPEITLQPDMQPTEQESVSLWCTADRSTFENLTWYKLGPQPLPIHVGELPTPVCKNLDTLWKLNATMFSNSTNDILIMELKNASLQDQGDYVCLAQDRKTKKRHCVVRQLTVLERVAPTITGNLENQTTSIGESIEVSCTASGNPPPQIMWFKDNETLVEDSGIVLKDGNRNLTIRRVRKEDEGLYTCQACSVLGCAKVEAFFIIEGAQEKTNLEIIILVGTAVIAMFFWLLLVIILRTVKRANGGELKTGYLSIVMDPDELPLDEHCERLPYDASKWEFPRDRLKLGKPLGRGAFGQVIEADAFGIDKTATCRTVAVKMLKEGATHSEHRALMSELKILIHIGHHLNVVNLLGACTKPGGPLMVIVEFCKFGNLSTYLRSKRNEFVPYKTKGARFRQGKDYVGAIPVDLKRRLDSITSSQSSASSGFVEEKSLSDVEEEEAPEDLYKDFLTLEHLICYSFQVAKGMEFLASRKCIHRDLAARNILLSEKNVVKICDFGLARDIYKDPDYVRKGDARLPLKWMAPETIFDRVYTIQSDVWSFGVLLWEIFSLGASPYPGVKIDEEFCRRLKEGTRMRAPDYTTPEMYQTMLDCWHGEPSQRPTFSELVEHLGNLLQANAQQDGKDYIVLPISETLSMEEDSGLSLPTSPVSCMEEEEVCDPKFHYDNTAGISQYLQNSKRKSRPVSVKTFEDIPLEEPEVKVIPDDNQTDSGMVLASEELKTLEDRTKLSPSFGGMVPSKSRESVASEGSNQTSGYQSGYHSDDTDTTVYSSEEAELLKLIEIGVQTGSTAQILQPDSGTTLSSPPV
- experimentSummary: cell-based or functional assay
Give measured Activity at 133 nM (% Inhibition), 1-hour Pre-incubation at 4° C., N = 1 for each item. Keep answers brief.
// units = %; emit number, no label

Input 33E1 (antibody, V domains shown) VH: QVQLQESGPGLVKPSQTLSLTCTVSGGSISSGDHYWSWIRQHPGKGLEWIGHIYYSGSTDYNPSLKSRVTISVDTSKNHFSLKLNSVTAADTAVYYCARTNSSSWSDWYFDLWGRGTLVTVSS VL: DIVMTQSPDSLAVSLGERATINCKSSQSILYSSNNKNYLAWYQRKPGQPPILLIHWASTRESGVPDRFSGSGSRTDFTLTISSLQAEDVAVYYCQQYFITPWTFGQGTKVEIK . Output Activity at 133 nM (% Inhibition), 1-hour Pre-incubation at 4° C., N = 1: 78

Input 24C9 (antibody, V domains shown) VH: EVQLVESGGGLVKPGGSLRLSCAASGFTFSTYSMNWVRQAPGKGLEWVSFISGRSSYIYYADSVKGRFTISRDNAKNSLYLQMNSLRAEDTAVYYCSKDDWFEELWGQGTLVTVSS VL: DIQMTQSPSSLSASVGDRVTITCRASQGIRNDLGWYQQKPGKAPKRLIYATFSLQSGVPSRFSGSGSGTEFTLTISSLQPEDFATYYCLQHNRYPWTFGQGTKVEIK . Output Activity at 133 nM (% Inhibition), 1-hour Pre-incubation at 4° C., N = 1: 81

Input 30D7 (antibody, V domains shown) VH: QVPLVESGGGVVQPGRSLRLSCAASGFTFSSYGMHWVRQAPGKGLEWVAVIWYDGSNKYYADSVKGRFTISRDNSKNTLYLQMNSLRAEDTAVYYCARGVTMVRGVIIARYYYGLDVWGQGTTVTVSS VL: DIVMTQTPLSSPVTLGQPASISCRSSQSLVHSDGNTYLSWLQQRPGQPPRLLIYKISNRFFGVPDRFSGSGAGTDFTLKIGRVEAEDVGLYYCMQSTQFPLTFGGGTKVEIK . Output Activity at 133 nM (% Inhibition), 1-hour Pre-incubation at 4° C., N = 1: 26
